Test system: choline transporters
Assay: In vitro determination of IC50: inhibition of [^3H]choline chloride accumulation in PC-3 cells
Assay type: cell-based
Settings: cell line PC-3 (human prostate carcinoma); [^3H]choline chloride 0.81 × 10^-6 M; 60 min at 37 °C; 4-methylbenzenesulfonate
Protocol: IC50 value corresponds to a concentration of the given analog of choline which reduces the accumulation of choline chloride, the natural ligand of choline transporterss, to 50 % of the maximum value. For the assay, the tritium labeled choline chloride, i.e. [^3H]choline chloride, was used. […] The remaining lysate (180 µL) was quantitatively transferred into scintillation vials containing a previously prepared scintillation solution (2 mL of the solution in each vial). […]
pIC50: −log10 of the molar value.

{"columns": ["MOLECULE", "pIC50"],
 "data": [
  ["OCC[N+]1(Cc2ccc(I)cc2)CCCC1 [Example 20, 4-methylbenzenesulfonate]", 5.20]
]}

---

# Microsomal stability t1l2 annotations
Assay: Microsomal stability
Details: hepatic microsomes

{"columns": ["MOLECULE", "UNITS", "Microsomal stability t1l2"],
 "data": [
  ["Cc1ccc(S(=O)(=O)[O-])cc1.OCC[N+]1(CCc2ccc(I)cc2)CCCC1 [Example 7]", "min", 15.3],
  ["COc1ccc(CCC[N+](C)(C)CCO)cc1I.Cc1ccc(S(=O)(=O)[O-])cc1 [Example 4]", "min", 1.2],
  ["C[N+](C)(CCO)Cc1ccccc1I.Cc1ccc(S(=O)(=O)[O-])cc1 [Example 19]", "min", 8.3],
  ["C[N+]1(Cc2ccccc2I)CCCC(O)C1.Cc1ccc(S(=O)(=O)[O-])cc1 (stereo not shown) [Example 16]", "min", 119.5]
]}

---

Test: Binding to plasmatic proteins
Conditions: plasma

{"columns": ["COMPOUND", "fraction unbound"],
 "data": [
  ["COc1ccc(CC[N+](C)(C)CCO)cc1I.Cc1ccc(S(=O)(=O)[O-])cc1 [Example 1, 4-methylbenzenesulfonate]", 0.805],
  ["Cc1ccc(S(=O)(=O)[O-])cc1.OC1C[N+]2(Cc3ccccc3I)CCC1CC2 (centres unmarked) [Example 18, 4-methylbenzenesulfonate]", 0.903],
  ["Cc1ccc(S(=O)(=O)[O-])cc1.OCC[N+]1(Cc2ccccc2I)CCCCC1 [Example 14, 4-methylbenzenesulfonate]", 0.831],
  ["C[N+](C)(CCO)CCc1ccc(I)cc1.Cc1ccc(S(=O)(=O)[O-])cc1 [Example 5, 4-methylbenzenesulfonate]", 0.653],
  ["COc1c(I)cc(CC[N+](C)(C)CCO)cc1I.Cc1ccc(S(=O)(=O)[O-])cc1 [Example 3, 4-methylbenzenesulfonate]", 0.512],
  ["COc1ccc(CCC[N+](C)(C)CCO)cc1I.Cc1ccc(S(=O)(=O)[O-])cc1 [Example 4, 4-methylbenzenesulfonate]", 0.715],
  ["Cc1ccc(S(=O)(=O)[O-])cc1.OCCN1CC[N+](CCO)(Cc2ccccc2I)CC1 [Example 17, 4-methylbenzenesulfonate]", 0.943],
  ["C[N+]1(Cc2ccccc2I)CCCC(O)C1.Cc1ccc(S(=O)(=O)[O-])cc1 (centres unmarked) [Example 16, 4-methylbenzenesulfonate]", 0.956],
  ["Cc1ccc(S(=O)(=O)[O-])cc1.OC1C[N+]2(CCc3ccc(I)cc3)CCC1CC2 (centres unmarked) [Example 8, 4-methylbenzenesulfonate]", 0.717],
  ["CC[N+](CC)(CCO)Cc1ccccc1I.Cc1ccc(S(=O)(=O)[O-])cc1 [Example 15, 4-methylbenzenesulfonate]", 0.814],
  ["C[N+](C)(CCO)Cc1ccccc1I.Cc1ccc(S(=O)(=O)[O-])cc1 [Example 19, 4-methylbenzenesulfonate]", 0.661],
  ["COc1ccc(CC[N+]23CCC(CC2)C(O)C3)cc1I.Cc1ccc(S(=O)(=O)[O-])cc1 (centres unmarked) [Example 2, 4-methylbenzenesulfonate]", 0.748],
  ["C[N+]1(CCc2ccc(I)cc2)CCCC(O)C1.Cc1ccc(S(=O)(=O)[O-])cc1 (centres unmarked) [Example 6, 4-methylbenzenesulfonate]", 0.735],
  ["Cc1ccc(S(=O)(=O)[O-])cc1.OCC[N+]1(CCc2ccc(I)cc2)CCCC1 [Example 7, 4-methylbenzenesulfonate]", 0.833]
]}

---

Assay: Microsomal stability
Conditions: hepatic microsomes

{"columns": ["MOLECULE", "UNITS", "Microsomal stability t1l2"],
 "data": [
  ["C[N+](C)(CCO)CCc1ccc(I)cc1.Cc1ccc(S(=O)(=O)[O-])cc1 [Example 5]", "min", 15.6],
  ["C[N+]1(CCc2ccc(I)cc2)CCCC(O)C1.Cc1ccc(S(=O)(=O)[O-])cc1 (stereo not shown) [Example 6]", "min", 1.1],
  ["CC[N+](CC)(CCO)Cc1ccccc1I.Cc1ccc(S(=O)(=O)[O-])cc1 [Example 15]", "min", 18.8],
  ["Cc1ccc(S(=O)(=O)[O-])cc1.OCCN1CC[N+](CCO)(Cc2ccccc2I)CC1 [Example 17]", "min", 1732.5],
  ["Cc1ccc(S(=O)(=O)[O-])cc1.OCC[N+]1(Cc2ccccc2I)CCCCC1 [Example 14]", "min", 61.3],
  ["Cc1ccc(S(=O)(=O)[O-])cc1.OC1C[N+]2(Cc3ccccc3I)CCC1CC2 (stereo not shown) [Example 18]", "min", 22.0],
  ["COc1c(I)cc(CC[N+](C)(C)CCO)cc1I.Cc1ccc(S(=O)(=O)[O-])cc1 [Example 3]", "min", 1.3],
  ["COc1ccc(CC[N+]23CCC(CC2)C(O)C3)cc1I.Cc1ccc(S(=O)(=O)[O-])cc1 (stereo not shown) [Example 2]", "min", 97.6],
  ["COc1ccc(CC[N+](C)(C)CCO)cc1I.Cc1ccc(S(=O)(=O)[O-])cc1 [Example 1]", "min", 165.0],
  ["Cc1ccc(S(=O)(=O)[O-])cc1.OC1C[N+]2(CCc3ccc(I)cc3)CCC1CC2 (stereo not shown) [Example 8]", "min", 34.8]
]}

---

This listing pairs molecules with measured Plasma stability (120 min).
Experiment: Stability in the plasma

{"columns": ["MOLECULE", "Plasma stability (120 min) [%]"],
 "data": [
  ["C[N+]1(CCc2ccc(I)cc2)CCCC(O)C1.Cc1ccc(S(=O)(=O)[O-])cc1 (centres unmarked)", 81.3],
  ["Cc1ccc(S(=O)(=O)[O-])cc1.OCC[N+]1(CCc2ccc(I)cc2)CCCC1", 97.6],
  ["Cc1ccc(S(=O)(=O)[O-])cc1.OC1C[N+]2(CCc3ccc(I)cc3)CCC1CC2 (centres unmarked)", 89.9],
  ["COc1ccc(CCC[N+](C)(C)CCO)cc1I.Cc1ccc(S(=O)(=O)[O-])cc1", 63.9],
  ["CC[N+](CC)(CCO)Cc1ccccc1I.Cc1ccc(S(=O)(=O)[O-])cc1", 84.9],
  ["Cc1ccc(S(=O)(=O)[O-])cc1.OC1C[N+]2(Cc3ccccc3I)CCC1CC2 (centres unmarked)", 73.4],
  ["C[N+]1(Cc2ccccc2I)CCCC(O)C1.Cc1ccc(S(=O)(=O)[O-])cc1 (centres unmarked)", 79.0],
  ["COc1c(I)cc(CC[N+](C)(C)CCO)cc1I.Cc1ccc(S(=O)(=O)[O-])cc1", 76.4],
  ["C[N+](C)(CCO)CCc1ccc(I)cc1.Cc1ccc(S(=O)(=O)[O-])cc1", 43.0],
  ["COc1ccc(CC[N+](C)(C)CCO)cc1I.Cc1ccc(S(=O)(=O)[O-])cc1", 28.4],
  ["Cc1ccc(S(=O)(=O)[O-])cc1.OCCN1CC[N+](CCO)(Cc2ccccc2I)CC1", 58.4],
  ["Cc1ccc(S(=O)(=O)[O-])cc1.OCC[N+]1(Cc2ccccc2I)CCCCC1", 80.7],
  ["C[N+](C)(CCO)Cc1ccccc1I.Cc1ccc(S(=O)(=O)[O-])cc1", 91.3],
  ["COc1ccc(CC[N+]23CCC(CC2)C(O)C3)cc1I.Cc1ccc(S(=O)(=O)[O-])cc1 (centres unmarked)", 59.0]
]}

---

Assay: in vitro
Conditions: liver microsomes
Binning of microsomal CLint into classes: bin A (below 20 µL/min/mg), bin B (20 µL/min/mg to below 200 µL/min/mg), bin C (200 µL/min/mg or more)

{"columns": ["COMPOUND", "CLASS"],
 "data": [
  ["CC[N+](CC)(CCO)Cc1ccccc1I.Cc1ccc(S(=O)(=O)[O-])cc1 [Example 15, 4-methylbenzenesulfonate]", "bin B"],
  ["C[N+]1(CCc2ccc(I)cc2)CCCC(O)C1.Cc1ccc(S(=O)(=O)[O-])cc1 (stereo not drawn) [Example 6, 4-methylbenzenesulfonate]", "bin C"],
  ["C[N+](C)(CCO)CCc1ccc(I)cc1.Cc1ccc(S(=O)(=O)[O-])cc1 [Example 5, 4-methylbenzenesulfonate]", "bin B"],
  ["COc1c(I)cc(CC[N+](C)(C)CCO)cc1I.Cc1ccc(S(=O)(=O)[O-])cc1 [Example 3, 4-methylbenzenesulfonate]", "bin C"],
  ["COc1ccc(CC[N+]23CCC(CC2)C(O)C3)cc1I.Cc1ccc(S(=O)(=O)[O-])cc1 (stereo not drawn) [Example 2, 4-methylbenzenesulfonate]", "bin A"],
  ["Cc1ccc(S(=O)(=O)[O-])cc1.OCCN1CC[N+](CCO)(Cc2ccccc2I)CC1 [Example 17, 4-methylbenzenesulfonate]", "bin A"],
  ["Cc1ccc(S(=O)(=O)[O-])cc1.OC1C[N+]2(Cc3ccccc3I)CCC1CC2 (stereo not drawn) [Example 18, 4-methylbenzenesulfonate]", "bin B"],
  ["C[N+]1(Cc2ccccc2I)CCCC(O)C1.Cc1ccc(S(=O)(=O)[O-])cc1 (stereo not drawn) [Example 16, 4-methylbenzenesulfonate]", "bin A"],
  ["Cc1ccc(S(=O)(=O)[O-])cc1.OC1C[N+]2(CCc3ccc(I)cc3)CCC1CC2 (stereo not drawn) [Example 8, 4-methylbenzenesulfonate]", "bin B"],
  ["Cc1ccc(S(=O)(=O)[O-])cc1.OCC[N+]1(Cc2ccccc2I)CCCCC1 [Example 14, 4-methylbenzenesulfonate]", "bin B"],
  ["COc1ccc(CCC[N+](C)(C)CCO)cc1I.Cc1ccc(S(=O)(=O)[O-])cc1 [Example 4, 4-methylbenzenesulfonate]", "bin C"],
  ["OCC[N+]1(Cc2ccc(I)cc2)CCCC1 [Example 20, 4-methylbenzenesulfonate]", "bin C"],
  ["Cc1ccc(S(=O)(=O)[O-])cc1.OCC[N+]1(CCc2ccc(I)cc2)CCCC1 [Example 7, 4-methylbenzenesulfonate]", "bin B"],
  ["COc1ccc(CC[N+](C)(C)CCO)cc1I.Cc1ccc(S(=O)(=O)[O-])cc1 [Example 1, 4-methylbenzenesulfonate]", "bin A"],
  ["C[N+](C)(CCO)Cc1ccccc1I.Cc1ccc(S(=O)(=O)[O-])cc1 [Example 19, 4-methylbenzenesulfonate]", "bin B"]
]}
